A collection of compounds and their measured Kp
Target: Mu-type opioid receptor (Rattus norvegicus)
Details: Brain; Membrane
Give the figure only, with no unit attached.

Before answering, review these 3 worked examples.
{"compound": "CN1CC[C@]23CCCC[C@H]2[C@H]1Cc1ccc(O)cc13", "numeric.result": 15.6}
{"compound": "CN1CC[C@]23c4c5ccc(O)c4O[C@H]2[C@@H](O)C=C[C@H]3[C@H]1C5", "numeric.result": 12.6}
{"compound": "C=CCN1CCC23CCCCC2C1Cc1ccc(O)cc13 (centres undefined)", "numeric.result": 20.8}

Measured Kp, COc1ccc2c3c1O[C@H]1[C@@H](O)C=C[C@H]4[C@@H](C2)N(C)CC[C@@]341 : 11.4

====

Molecular target: Mu-type opioid receptor (Rattus norvegicus) (UniProt P33535)
Sequence (P33535 whole entry): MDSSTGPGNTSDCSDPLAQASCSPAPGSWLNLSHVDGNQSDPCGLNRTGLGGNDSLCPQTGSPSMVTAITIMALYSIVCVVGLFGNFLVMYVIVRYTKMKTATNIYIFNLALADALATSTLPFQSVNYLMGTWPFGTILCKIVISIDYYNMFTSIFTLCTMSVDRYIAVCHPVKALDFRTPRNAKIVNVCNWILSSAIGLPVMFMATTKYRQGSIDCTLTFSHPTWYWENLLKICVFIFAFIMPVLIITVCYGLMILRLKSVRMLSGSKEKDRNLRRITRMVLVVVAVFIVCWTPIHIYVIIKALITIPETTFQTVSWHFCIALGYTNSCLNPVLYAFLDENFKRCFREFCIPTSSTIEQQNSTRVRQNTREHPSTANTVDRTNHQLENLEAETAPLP
Conditions: Brain; Membrane
Entries and their measured KT follow.

In the examples that follow, each entry is paired with its recorded KT.
{"compound": "COc1ccc2c3c1O[C@H]1[C@@H](O)C=C[C@H]4[C@@H](C2)N(C)CC[C@@]341 [CODEINE]", "assayed.target": "Mu-type opioid receptor (Rattus norvegicus) (UniProt P33535)", "measured.attribute": "KT", "result": 13.3}
{"compound": "CN1CC[C@]23c4c5ccc(O)c4O[C@H]2[C@@H](O)C=C[C@H]3[C@H]1C5", "assayed.target": "Mu-type opioid receptor (Rattus norvegicus) (UniProt P33535)", "measured.attribute": "KT", "result": 18.8}
{"compound": "C=CCN1CCC23CCCCC2C1Cc1ccc(O)cc13 (centres undefined)", "assayed.target": "Mu-type opioid receptor (Rattus norvegicus) (UniProt P33535)", "measured.attribute": "KT", "result": 21.6}

// moving on: another record for KT
So, CN1CC[C@]23CCCC[C@H]2[C@H]1Cc1ccc(O)cc13 [LEVORPHANOL] ? Its KT was 20.8
